Source of measurements: patent US10538497B2

Target: IDO1 (Homo sapiens (Human))
Sequence (P14902 whole entry): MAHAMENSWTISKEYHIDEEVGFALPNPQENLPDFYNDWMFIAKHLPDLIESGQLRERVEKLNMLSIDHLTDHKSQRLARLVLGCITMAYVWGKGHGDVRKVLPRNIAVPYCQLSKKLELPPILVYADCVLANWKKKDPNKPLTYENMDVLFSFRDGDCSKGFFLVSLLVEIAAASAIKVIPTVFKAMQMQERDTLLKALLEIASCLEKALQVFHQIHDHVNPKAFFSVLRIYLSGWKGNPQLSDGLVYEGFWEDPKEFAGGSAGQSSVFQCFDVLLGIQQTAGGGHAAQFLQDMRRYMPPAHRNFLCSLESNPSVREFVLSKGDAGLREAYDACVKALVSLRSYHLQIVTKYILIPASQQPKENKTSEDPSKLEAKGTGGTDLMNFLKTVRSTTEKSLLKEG
Assay: IDO1 Cellular Assay in Hela Cells Stimulated with IFNγ
Format: cell-based
Conditions: Hela cells stimulated with IFNγ 100 ng/mL; read-out: IDO1 HELA Cell Assay, IC50
Readout name: IC50 (nM)
Write it as a number; the unit nM goes unstated.

These solved cases illustrate the format of a correct answer.
# Molecule, Value observed
rows = [
    ("C[C@H](O)CNC(=O)CSc1nonc1/C(=N/O)Nc1ccc(F)c(Br)c1 [Example 200]", 14.9),
    ("O=C(CSc1nonc1/C(=N/O)Nc1ccc(F)c(Br)c1)NC1(CO)CC1", 12.2),
]

Q: Need IC50 of CCOC(=O)NC(=O)NCCSc1nonc1C(=NO)Nc1ccc(F)c(Br)c1 , thanks.
A: 169

Q: Next molecule up: CN(C)C(=O)CSc1nonc1C(=NO)Nc1ccc(F)c(Br)c1
A: 685

Q: Please give the result for CC(C)(Sc1nonc1/C(=N/O)Nc1ccc(F)c(Br)c1)C(=O)NC[C@@H](O)CO too.
A: 144

Q: // same read-out, input: CNC(=O)CSc1nonc1/C(=N/O)Nc1ccc(F)c(Br)c1
A: 17.6

Q: Next up: COCCNS(=O)(=O)NCCSc1nonc1/C(=N/O)Nc1ccc(F)c(Br)c1
A: 37.4
